Taken from PubChem BioAssay (NCI).

test system: U251 CNS; experiment: NCI-60 one-dose screen, 48 h; details: 10 µM unless noted
This is part of a sample that, as a whole, favours compounds with a hit. Of some 83,000 tested, about 20% had one in any assay. The source made the active and inactive calls. Rule for the calls: active = growth percent below 10; inactive = the rest.
Outcomes: t for active, f for inactive

CCOC(=O)c1c(-c2cc(OC)c(OC)c(OC)c2)csc1N = f
COc1ccc(CSc2nc3cc(OC)c(OC)cc3c(=O)n2-c2ccc(Cl)cc2)cc1 = f
Nc1nc(N)c(C=Nc2ccc(Br)cc2)c(Nc2ccc(Br)cc2)n1 = f
COc1ccc(-c2nn(-c3ccc(NC(=O)c4ccc(Cl)c(Cl)c4)cc3)cc2-c2ccncc2)cc1Cl = f
Cc1ccc2nc(NC(=O)CSC(=S)N3CCN(Cc4ccccc4)CC3)sc2c1 = t
O=C1CCC(N2C(=O)c3cccc(NCCOCCOCCNC(=O)c4cc5c(o4)C(=O)c4ccccc4C5=O)c3C2=O)C(=O)N1 (centres undefined) = t
Oc1ccc(Cl)cc1CNc1nc2ccccc2[nH]1 = f
COC(=O)[C@@]12CC[C@@H](C)[C@]3(C[C@@H](c4ccoc4)OC3=O)[C@H]1CC[C@@H]1O[C@@]12C = f
CCCN(CCC)c1ccc(/C=C/c2ccc3cc(OCC)ccc3n2)cc1 = f
